Tested on: HCV replicon
Assay: HCV replicon assay: HCV RNA by Q-RT-PCR, 4 days exposure
Format: cell-based, hepatitis C virus (HCV)
Details: Hepatitis C virus, 96 h; 100 μM; 4 days; HCV replicon transfected Huh-7 cells; read-out: log10 RNA reduction at 100 μM, HCV
recordedEndpoint: log reduction at 100 µM

* NC(=O)NO [Hydroxyurea] | 0.17
* NC(=O)c1[nH]nc([C@@H]2O[C@H](CO)[C@@H](O)[C@H]2O)c1O | 1.88
* NC(=O)c1ncn([C@@H]2O[C@H](CO)[C@@H](O)[C@H]2O)n1 | 1.96

* * *

Tested on: HCV replicon
Assay: HCV replicon assay: HCV RNA by Q-RT-PCR, 4 days exposure
Format: cell-based, hepatitis C virus (HCV)
Settings: 10 μM; corrected for rRNA
recordedEndpoint: Corrected HCV RNA log10 reduction at 10 μM

• O=c1cnn([C@@H]2O[C@H](CO)[C@@H](O)[C@H]2O)c(=S)[nH]1 [2-thio-6-azauridine] = 0.12 ± 0.10 log10
• O=C1C(O)=C(CC=C(Cl)Cl)C(=O)c2ccccc21 [Dichloroallyl lawsone (NSC-126771), Dichloroallyl lawsone] = −0.52 ± 0.01 log10
• COc1c(C)c2c(c(O)c1CCOP(=O)(O)CP(=O)(O)OC[C@H]1O[C@@H](n3cnc4c(N)ncnc43)[C@H](O)[C@@H]1O)C(=O)OC2 [C2-MAD] = 0.36 ± 0.21 log10
• CC(=O)N(O)CCCCCNC(=O)CCC(=O)N(O)CCCCCNC(=O)CCC(=O)N(O)CCCCCN [Deferoxamine] = 0.17 ± 0.11 log10
• Nc1ccn(C2OC(CO)C(O)C2=CF)c(=O)n1 (centres unmarked) [Tezacytabine] = 0.63 ± 0.07 log10
